assay: xn = mol fraction of the nth substance listed, in the solute-free solvent; conditions: 318.15 K; x2 = 0.9
Form field: solubility (g/100 g solution) (one value per entry).
Write the value as a bare number.

Below: 5 compounds and their reported solubility (g/100 g solution).
Cc1c(Br)c(=O)n(C2CCCC2)c2nc(Cl)ncc12 + CC1=CC(=O)CC(C)(C)C1 + CC(C)O = 4.55
CCOc1ccccc1C(N)=O + CO + CC#N = 22.7
CCOc1ccccc1C(N)=O + CCO + CC#N = 14.7
Cc1c(Br)c(=O)n(C2CCCC2)c2nc(Cl)ncc12 + CCOC(C)=O + CCO = 1.69
CCOc1ccccc1C(N)=O + CC#N + CC(C)O = 12.6

## Input Tell me the measured solubility (g/100 g solution) of Cc1c(Br)c(=O)n(C2CCCC2)c2nc(Cl)ncc12 + C1CCOC1 + CCO , please.
## Output 11.9

## Input What do we get for NC(=O)NC1NC(=O)NC1=O (configuration not stated) + O + CO ?
## Output 1.29
